Data credit: paper PMC3258117

Test: Reduction potential by cyclic voltammetry
Format: physicochemical
Conditions: in DMSO, cyclic voltammetry relative to Ag/AgCl
E1/2 reduction potential: recorded values
Answer with the value and then the unit.

Completed entries (count: 3):
>  <CHEMICAL_SMILES>
Cl.O=[N+]([O-])c1nccn1CCCNc1nc(-c2ccccc2)nc2ccccc12

>  <PROPERTY_NAME>
E1/2 reduction potential

>  <OBSERVED_MEASUREMENT>
-1.03 V

$$$$
>  <CHEMICAL_SMILES>
Cl.O=[N+]([O-])c1ncn(CCCNCc2cc(C(F)(F)F)cc(C(F)(F)F)c2)n1

>  <PROPERTY_NAME>
E1/2 reduction potential

>  <OBSERVED_MEASUREMENT>
-1.07 V

$$$$
>  <CHEMICAL_SMILES>
Cl.O=[N+]([O-])c1ncn(CCCNc2nc(-c3ccccc3)nc3ccccc23)n1

>  <PROPERTY_NAME>
E1/2 reduction potential

>  <OBSERVED_MEASUREMENT>
-1.04 V

$$$$

Tell me the measured E1/2 reduction potential of `Cl.Cl.O=[N+]([O-])c1ncn(CCCCN2CCN(Cc3ccc(C(F)(F)F)cc3)CC2)n1` , please.
-1.04 V

Any idea what E1/2 reduction potential was measured for `Cl.O=[N+]([O-])c1ncn(CCCN(Cc2ccc(C(F)(F)F)cc2)Cc2ccc(C(F)(F)F)cc2)n1` ?
-1.06 V

----------
Test system: L. donovani MHOM-ET-67/L82 axenic amastigotes
Assay: In vitro growth inhibition of axenically cultured L. donovani amastigotes
Type: cell-based, Leishmania donovani
Conditions: SI = IC50 in L6 cells / IC50 in parasites

>  <COMPOUND>
Cl.Clc1ccc2c(NCCCCn3cncn3)ccnc2c1 [Compound 19]

>  <L. donovani axen. SI>
∼1

$$$$
>  <COMPOUND>
Cl.Cl.O=[N+]([O-])c1nccn1CCCN1CCN(Cc2ccc(C(F)(F)F)cc2)CC1 [Compound 39]

>  <L. donovani axen. SI>
∼1

$$$$
>  <COMPOUND>
Cl.O=[N+]([O-])c1nccn1CCCNCc1cc(C(F)(F)F)cc(C(F)(F)F)c1 [Compound 26]

>  <L. donovani axen. SI>
∼2

$$$$
>  <COMPOUND>
Cc1cc(NCCCn2ccnc2[N+](=O)[O-])nc(N)n1.Cl [Compound 11]

>  <L. donovani axen. SI>
∼3

$$$$
